Where do these numbers come from? They come from patent US20250057832A1.

Tested on: U87MG
Test: Cell viability assay (Example 2)
Assay type: cell-based
Conditions: Homo sapiens, U-87 MG, 48 hours
Quantity kind: IC50
Just the number plus its unit, please.

Recall the recorded IC50 for CCOC(=O)C1=C(C)Nc2nc3c(c(N)c2C1c1ccccc1Cl)CC(C)(C)CC3 (stereo not shown) [Compound S2] with U87MG and state it.
11.7 µM
